Target or test system: recombinant human G9a protein (Homo sapiens, UniProt Q96KQ7)
Construct: purchased BPS Bioscience Inc. #51001
Sequence (Q96KQ7 785-1210 limits assumed): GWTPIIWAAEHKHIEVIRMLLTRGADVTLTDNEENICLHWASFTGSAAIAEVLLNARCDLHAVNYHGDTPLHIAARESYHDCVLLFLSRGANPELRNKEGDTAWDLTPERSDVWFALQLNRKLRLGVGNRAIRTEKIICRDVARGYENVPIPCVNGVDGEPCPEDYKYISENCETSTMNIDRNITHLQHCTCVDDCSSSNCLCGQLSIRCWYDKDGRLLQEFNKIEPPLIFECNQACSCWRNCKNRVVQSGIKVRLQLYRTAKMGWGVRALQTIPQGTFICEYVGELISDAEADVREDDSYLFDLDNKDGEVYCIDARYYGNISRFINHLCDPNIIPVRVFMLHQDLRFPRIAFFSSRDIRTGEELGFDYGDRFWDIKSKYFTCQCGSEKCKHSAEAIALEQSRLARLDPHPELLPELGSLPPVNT
Experiment summary: G9a inhibitory activity test (ALPHA)
Format: biochemical
Condition details: read-out: Inhibitory activity (G9a IC50)
pIC50: −log10 of the molar value.
Items are presented alongside their recorded pIC50.

Solved cases below.
[
  {
    "Compound": "COc1ccc(NC(=O)[C@H](CCC2CC2)NC(=O)c2ccc(Nc3ccncc3)cc2)cn1",
    "pIC50": "> 7.30"
  },
  {
    "Compound": "CCCCC(NC(=O)c1[nH]c2c(c1C)C(=O)CC(C)(C)C2)C(=O)Nc1ccc(N2CCNCC2)nc1 (stereo not drawn)",
    "pIC50": "6.70 to 7.30"
  },
  {
    "Compound": "Cc1c(C(=O)NC(CCC2CC2)c2nc3ccccc3n2C)[nH]c2c1C(=O)CC(C)(C)C2 (stereo not drawn)",
    "pIC50": "6.70 to 7.30"
  },
  {
    "Compound": "COc1ccc(NC(=O)C(CCC2CC2)NC(=O)c2ccc(CCCN(C)C)cc2)cn1 (stereo not drawn)",
    "pIC50": "6.70 to 7.30"
  },
  {
    "Compound": "Cc1c(C(=O)NC(CCC2CC2)c2nc3cccc(CN(C)C)c3n2C)[nH]c2c1C(=O)CC(C)(C)C2 (stereo not drawn)",
    "pIC50": "≤ 6.70"
  }
]

What does the record list as pIC50 for COc1ccc(NC(=O)C(CCC2CC2)NC(=O)c2ccc(C3CCNCC3)cc2)cn1 (stereo not drawn) ?
> 7.30

What does the record list as pIC50 for CCCCC(NC(=O)c1[nH]c2c(c1C)C(=O)CC(C)(C)C2)C(=O)Nc1ccc2c(c1)CNCC2 (stereo not drawn) ?
6.70 to 7.30

What does the record list as pIC50 for COc1ccc(NC(=O)C(CCC2CC2)NC(=O)c2ccc(Nc3ccncc3)cc2C)cn1 (stereo not drawn) ?
> 7.30

What does the record list as pIC50 for Cc1c(C(=O)N[C@H](CCC2CC2)C(=O)N(C)[C@H](C)c2ccccc2)[nH]c2c1C(=O)CC(C)(C)C2 ?
≤ 6.70

What does the record list as pIC50 for CCCCC(NC(=O)c1[nH]c2c(c1C)C(=O)CC(C)(C)C2)C(=O)Nc1ccnc2ccccc12 (stereo not drawn) ?
≤ 6.70

* * *

Target or test system: recombinant human G9a protein (Homo sapiens)
Construct: purchased BPS Bioscience Inc. #51001
Experiment summary: G9a inhibitory activity test (ALPHA)
Format: biochemical
Condition details: read-out: Inhibitory activity (G9a IC50)
Attribute measured: IC50

What does the record list as IC50 for COc1ccc(NC(=O)[C@H](CCC2CC2)NC(=O)c2ccc(Nc3cc(C)nc(C)c3)cc2)cn1 ?
< 50 nM

What does the record list as IC50 for CCCCC(NC(=O)c1[nH]c2c(c1C)C(=O)CC(C)(C)C2)C(=O)NCc1ccc(CNC)cc1 (stereo not shown) ?
< 50 nM

What does the record list as IC50 for COc1ccc(NC(=O)C(CCC2CC2)NC(=O)c2ccc(Nc3ccnc(OC)c3)cc2)cn1 (stereo not shown) ?
≥ 200 nM

What does the record list as IC50 for CCCC[C@H](NC(=O)c1[nH]c2c(c1CC)CCC(C)(C)C2)C(=O)Nc1ccccc1 ?
≥ 200 nM
